assay: Quantitative High-Throughput drug screen in 47 multiple myeloma cell lines against the NCATS MIPE library collection: JIM1_ECACC cell viability assay (AID 1918964); conditions: JIM1 myeloma viability, CellTiter-Glo ATP luminescence, 48 h; series mostly up to 45.8 µM
Results filed as inconclusive are left out. The source made the active and inactive calls. Calls follow the shape of the dose curve; as a rule, active = well fitted cell-killing curve with a large enough effect; inconclusive = small, poorly fitted or top-dose-only effect, or effect the other way; inactive = no such curve, though single readings can be large or run the other way.
Field 'call' accepts 1 (yes) = active, 0 (no) = inactive

QUERY: Record request — test call for `CN1CCN(c2cc(C(=O)Nc3ccc4c(c3)-c3c(c(C(N)=O)nn3-c3ccc(F)cc3)CC4)c(Cl)cn2)CC1`
RESULT: 1 (yes)

QUERY: Another compound: `COc1cc(C(=O)NS(=O)(=O)c2ccccc2C)ccc1Cc1cn(C)c2ccc(NC(=O)OC3CCCC3)cc12`
RESULT: 0 (no)

QUERY: Another compound: `CC(C)c1ccccc1Cc1cc(C(=O)Nc2ccc(S(=O)(=O)c3ccccc3C(C)(C)C)cc2)c(O)c(O)c1O`
RESULT: 0 (no)

QUERY: Another compound: C=C1C(=CC=C2CCCC3(C)[C@@H]([C@H](C)C=CC=CC(O)(CC)CC)CC[C@@H]23)C[C@@H](O)C[C@@H]1O (stereo partly drawn)
RESULT: 1 (yes)

QUERY: Another compound: `CC(C)Nc1cc(C(F)(F)F)cc2nc(NC(=O)c3cccnc3)nn12`
RESULT: 0 (no)

QUERY: Another compound: `Cn1c(=O)n(-c2ccc(C(C)(C)C#N)cc2)c2c3cc(-c4cnc5ccccc5c4)ccc3ncc21`
RESULT: 1 (yes)

QUERY: Another compound: COc1ccc(-c2cc3c(C)nc(N)nc3n(C3CCC(OCCO)CC3)c2=O)cn1 (stereo not drawn)
RESULT: 1 (yes)

QUERY: Another compound: `NC1(Cc2ccc(Cl)cc2)CCN(c2ncnc3[nH]ccc23)CC1`
RESULT: 1 (yes)

QUERY: Another compound: `CNC(=O)c1cc(Oc2ccc(NC(=O)Nc3cc(C(C)(C)C)nn3-c3ccc4ncccc4c3)c(F)c2)ccn1`
RESULT: 1 (yes)

QUERY: Another compound: `Nc1ncnc2c1c(-c1cnc3[nH]ccc3c1)nn2C1CCCC1`
RESULT: 1 (yes)

QUERY: Another compound: `O=C(Cc1ccc(-c2ccc(OCCN3CCOCC3)cc2)cn1)NCc1ccccc1`
RESULT: 1 (yes)

QUERY: Another compound: `CC(=O)SC[C@@H](C)C(=O)N1CCC[C@H]1C(=O)N[C@@H](Cc1ccccc1)C(=O)O`
RESULT: 0 (no)

QUERY: Another compound: `Cc1cnc(Nc2ccc(F)cc2Cl)nc1-c1c[nH]c(C(=O)N[C@H](CO)c2cccc(Cl)c2)c1`
RESULT: 1 (yes)

QUERY: Another compound: `CNC(=O)c1ccccc1Nc1nc(Nc2ccc(N3CCOCC3)cc2OC)ncc1Cl`
RESULT: 1 (yes)

QUERY: Another compound: `COc1ccc(C=Cc2cc(OC)c(OC)c(OC)c2)cc1O`
RESULT: 0 (no)

QUERY: Another compound: `CNC(=O)c1ccc(N2C(=S)N(c3cnc(C#N)c(C(F)(F)F)c3)C(=O)C23CCC3)cc1F`
RESULT: 1 (yes)

QUERY: Another compound: `COc1cc2c(Oc3ccc(-c4cnc(Nc5ccc(F)cc5)n(C)c4=O)cc3F)ccnc2cc1OCCCN1CCOCC1`
RESULT: 1 (yes)

QUERY: Another compound: `C[C@@H]1COC(Nc2ccc3ncnc(Nc4ccc(OCc5nccs5)c(Cl)c4)c3c2)=N1`
RESULT: 1 (yes)
